tested on: Human Serum Albumin (HSA); assay: Binding to albumin, fluorescence quenching; details: calculated from association constant KS for albumin concentration in blood of 44 mg/mL (660 μM)
measured property: bound fraction (albumin) (%)
Supply the numeric figure in %, leaving out any unit text.

So, COc1ccc(C=C2C(=O)c3ccccc3C2=O)cc1O ? Its bound fraction (albumin) was 97

So, COc1ccc(C=C2C(=O)c3ccccc3C2=O)cc1 ? Its bound fraction (albumin) was 94

So, COc1ccc2c(OC)ccc(C=C3C(=O)c4ccccc4C3=O)c2c1 ? Its bound fraction (albumin) was 88

So, O=C1C(=Cc2ccc(O)cc2)C(=O)c2ccccc21 ? Its bound fraction (albumin) was 96

So, O=C1C(=Cc2cccc3ccccc23)C(=O)c2ccccc21 ? Its bound fraction (albumin) was 93

So, O=C1C(=Cc2ccoc2)C(=O)c2ccccc21 ? Its bound fraction (albumin) was 95

----------
assay: Chromatographic (RP-HPLC) examination of lipophilicity, Snyder–Soczewiński model; assay type: physicochemical; conditions: RP-HPLC, acetonitrile as organic modifier, extrapolated Snyder–Soczewiński curve
Label class 1 when logkw (ACN) is strictly below 2; otherwise label class 0.

Q: Threshold test, logkw (ACN) < 2: O=C1C(=CC2=Cc3cc(O)ccc3OC2)C(=O)c2ccccc21 [Compound 3K]
Result: class 1

Q: Threshold test, logkw (ACN) < 2: COc1ccc(C=C2C(=O)c3ccccc3C2=O)cc1O [Compound 3E]
Result: class 1

Q: Threshold test, logkw (ACN) < 2: Cc1ccc(Oc2ccc(C=C3C(=O)c4ccccc4C3=O)cc2)cc1 [Compound 3D]
Result: class 0

Q: Threshold test, logkw (ACN) < 2: O=C1C(=Cc2ccccc2)C(=O)c2ccccc21 [Compound 3A, 2-benzylidene-1H-indene-1,3(2H)-dione]
Result: class 0

Q: Threshold test, logkw (ACN) < 2: O=C1C(=Cc2ccc(N(c3ccccc3)c3ccccc3)cc2)C(=O)c2ccccc21 [Compound 3I]
Result: class 0

----------
test system: Human Serum Albumin (HSA); assay: Binding to albumin, fluorescence quenching; conditions: human, human serum albumin solution (10 µM HSA), pH 7.4; calculated from association constant KS for albumin concentration in blood of 44 mg/mL (660 μM); read-out: free fraction (albumin)
measured property: fraction unbound

Entry COc1ccc(C=C2C(=O)c3ccccc3C2=O)cc1O [Compound 3E] under Human Serum Albumin (HSA) had fraction unbound of 0.03

Entry O=C1C(=Cc2ccoc2)C(=O)c2ccccc21 [Compound 3H] under Human Serum Albumin (HSA) had fraction unbound of 0.05

Entry O=C1C(=Cc2ccc(N(c3ccccc3)c3ccccc3)cc2)C(=O)c2ccccc21 [Compound 3I] under Human Serum Albumin (HSA) had fraction unbound of 0.17

Entry Cc1ccc(Oc2ccc(C=C3C(=O)c4ccccc4C3=O)cc2)cc1 [Compound 3D] under Human Serum Albumin (HSA) had fraction unbound of 0.03

Entry COc1ccc2c(OC)ccc(C=C3C(=O)c4ccccc4C3=O)c2c1 [Compound 3G] under Human Serum Albumin (HSA) had fraction unbound of 0.12
